We begin with a simple list: items and their reported percent blocking.
Biological target: recombinant SARS-CoV-2 spike S1 RBD (R319-F541), C-terminal 6-His (SARS-CoV-2, UniProt P0DTC2 319-541)
Assay: flow cytometry, blocking of binding to hACE-2 cells
Your answer should be a plain number; it is taken to be in %.

| Binder | percent blocking (%) |
| --- | --- |
| 1035753 (antibody, V domains shown) VH: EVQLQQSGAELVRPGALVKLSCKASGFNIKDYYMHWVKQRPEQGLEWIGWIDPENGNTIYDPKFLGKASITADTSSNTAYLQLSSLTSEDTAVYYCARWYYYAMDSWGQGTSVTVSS VL: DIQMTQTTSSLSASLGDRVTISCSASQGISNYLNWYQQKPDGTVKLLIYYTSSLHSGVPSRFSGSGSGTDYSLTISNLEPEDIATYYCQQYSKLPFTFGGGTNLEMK | 94.7 |

## Input Item 1035224 (antibody, V domains shown) VH: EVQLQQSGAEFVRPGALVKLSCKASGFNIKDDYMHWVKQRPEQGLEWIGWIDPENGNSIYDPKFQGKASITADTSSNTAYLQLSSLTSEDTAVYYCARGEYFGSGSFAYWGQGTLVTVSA VL: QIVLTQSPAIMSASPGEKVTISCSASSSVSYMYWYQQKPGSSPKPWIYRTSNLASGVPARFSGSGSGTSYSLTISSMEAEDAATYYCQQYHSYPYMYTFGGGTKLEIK : provide percent blocking
## Output 99.1

## Input Item 1035755 (antibody, V domains shown) VH: EVQLQQSGAELVRPGALVKLSCKASGFNIKDYYMHWVKQRPEQGLEWIGWIDPENGNSIYDPKFQGKASITADTSSNTAYLQLSSLTSEDTAVYYCATPSATSYFDYWGQGTTLTVSS VL: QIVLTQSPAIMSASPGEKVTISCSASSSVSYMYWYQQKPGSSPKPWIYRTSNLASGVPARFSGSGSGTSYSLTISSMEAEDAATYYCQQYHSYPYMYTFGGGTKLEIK : provide percent blocking
## Output 94.1
